value type: O2 permeability (Barrer)
State just the number; it will be interpreted in Barrer.

Please review the following examples before continuing.
> print(dat)
                                   compound       value.type  measured
1  *Oc1ccc(S(=O)(=O)c2ccc(Oc3ccc(C(C)(C)c4ccc(*)cc4)cc3N)cc2)cc1 (repeat unit)  O2 permeability     0.745
2  */C(C)=C(/*)[Si](C)(C)CCCC (repeat unit)  O2 permeability        29

Task: Provide one value: measured O2 permeability of *CC(*)OC1C2CC3CC(C2)CC1C3 (repeat unit)
Output: 6.01

----------
value type: CO2 permeability
Don't forget the unit after the number, please.

Please review the following examples before continuing.
molecule	value type	measured
*Oc1ccc(S(=O)(=O)c2ccc(Oc3ccc(C(C)(C)c4ccc(*)c(C)c4)cc3C)cc2)cc1 (repeat unit)	CO2 permeability	2.1 Barrer
*Oc1ccc(-c2c(-c3ccc(Br)cc3)c(-c3ccc(Br)cc3)c(-c3ccc4c(c3)Oc3c(C#N)c(*)c(*)c(C#N)c3O4)c(-c3ccc(Br)cc3)c2-c2ccc(Br)cc2)cc1O* (repeat unit)	CO2 permeability	1430 Barrer
*C(=C(*)c1ccc2c(c1)Cc1ccccc1-2)c1ccc([Si](C)(C)C)cc1 (repeat unit)	CO2 permeability	6450 Barrer

Moving on to the next molecule.
Task: Provide one value: measured CO2 permeability of *Oc1ccc2c(c1)C1(CC2(C)C)CC(C)(C)c2ccc(Oc3ccc4c(c3)C(=O)N(c3cccc(N5C(=O)c6ccc(*)cc6C5=O)c3)C4=O)cc21 (repeat unit)
Output: 4.5 Barrer

----------
Entries and their log10 of CO2 permeability values follow.
// do not treat as linear: log10 of CO2 permeability, unit Barrer

Please review the following examples before continuing.
> print(dat)
                                   compound                 value.type  measured
1  *OC(=O)c1ccc(C(=O)Oc2c(C)cc(C(C)(C)c3cc(C)c(O*)c(C)c3)cc2C)cc1 (repeat unit)  log10 of CO2 permeability      0.67
2            *CC(*)OCc1ccccc1 (repeat unit)  log10 of CO2 permeability      1.05
3  *c1ccc(Cc2ccc(N3C(=O)c4ccc(Oc5ccc(Oc6ccc7c(c6)C(=O)N(*)C7=O)cc5)cc4C3=O)cc2)cc1 (repeat unit)  log10 of CO2 permeability      0.09
4  *Oc1ccc(Oc2ccc(C(=O)c3ccc(*)cc3)cc2)c(-c2cccc(C)c2)c1 (repeat unit)  log10 of CO2 permeability      0.00
5          *CC(*)c1ccc(OC)cc1 (repeat unit)  log10 of CO2 permeability      1.28

Moving on to the next compound.
Task: Provide one value: measured log10 of CO2 permeability of *Oc1ccc(Oc2cccc(*)c2C#N)c(-c2cc(C(F)(F)F)cc(C(F)(F)F)c2)c1 (repeat unit)
Output: 1.28

----------
Short version: CO2 permeability at least 20 Barrer is T, less is F.

Task: Assess whether reported CO2 permeability for *Oc1c(C)cc(-c2cc(C)c(Oc3ccc(S(=O)(=O)c4ccc(*)cc4)cc3)c(C)c2)cc1C (repeat unit) sits at 20 Barrer or higher.
Output: F

----------
Entries and their N2 permeability values follow.
State just the number; it will be interpreted in Barrer.

Please review the following examples before continuing.
molecule	display unit	N2 permeability
*c1ccc(-c2ccc(-c3ccc(C(*)(c4ccccc4)C(F)(F)F)cc3)cc2)cc1 (repeat unit)	Barrer	9
*CC(*)c1ccc([Si](C)(C)C)cc1 (repeat unit)	Barrer	16
*Oc1cc(C)c(C(c2cc(C(C)C)c(Oc3ccc(S(=O)(=O)c4ccc(*)cc4)cc3)cc2C)c2ccccc2C(=O)O)cc1C(C)C (repeat unit)	Barrer	0.757

Task: Provide one value: measured N2 permeability of *c1ccc(C(c2ccc(-c3nnc(*)n3-c3ccc(O)cc3)cc2)(C(F)(F)F)C(F)(F)F)cc1 (repeat unit)
Output: 10.2

Task: Provide one value: measured N2 permeability of *c1c(C)cc2c(c1C)C1c3ccccc3C2c2cc(C)c(N3C(=O)c4ccc(C(c5ccc6c(c5)C(=O)N(*)C6=O)(C(F)(F)F)C(F)(F)F)cc4C3=O)c(C)c21 (repeat unit)
Output: 113

Task: Provide one value: measured N2 permeability of *C(=C(*)c1ccc(S(=O)(=O)O)cc1)c1ccc(C(C)(C)C)cc1 (repeat unit)
Output: 11

Task: Provide one value: measured N2 permeability of *OC1OC(OC(C)=O)C(*)C(OC(C)=O)C1OC(C)=O (repeat unit)
Output: 0.23

Task: Provide one value: measured N2 permeability of *Oc1ccc(S(=O)(=O)c2ccc(Oc3ccc(C4(c5ccc(*)cc5)c5ccccc5-c5ccccc54)cc3)cc2)cc1 (repeat unit)
Output: 0.484
